test system: HIV-1 (strain IIIB); test: microbe, parasite or virus in culture; assay type: cell-based; conditions: Human immunodeficiency virus 1, 120 h; MT4 cells infected with HIV-1 strain IIIB, 5 days; lower line of each compound's entry; read-out: IC50 (MT-4 cells)
pIC50: −log10 of the molar value.
metric: pIC50

Field: example entries. Status: answers known.
Nc1ccc(S(=O)(=O)N(CC(O)C(Cc2ccccc2)NC(=O)OC2COC3OCCC23)OC2CCCC2)cc1 (stereo not drawn): ≥ 7.00
CS(=O)(=O)Nc1nc2cc(S(=O)(=O)N(C[C@@H](O)[C@H](Cc3ccccc3)NC(=O)O[C@H]3CO[C@H]4OCC[C@H]43)OC3CCCC3)ccc2[nH]1: ≥ 7.00

Please turn your attention to the following entry.
System HIV-1 (strain IIIB). Read-out pIC50. Item Nc1ccc(S(=O)(=O)N(C[C@@H](O)[C@H](Cc2ccccc2)NC(=O)O[C@H]2CO[C@H]3OCC[C@H]32)OC2CCOCC2)cc1 . Report value.
≥ 7.00
